tested on: E. coli ATCC 25922; assay type: cell-based, Escherichia coli; conditions: (Supplement 2)
*1 amine or outer side, *2 acyl side, *3 side chain or, on linkers, in order; H or OH if unused. Where a SMILES comes first, the peptide text is derived from it. [ ]: non-standard residue; d: D form. The star is where a group is joined. ξ: configuration not given here. X1 = C[C@@H](N=[N+]=[N-])[C@H](N[*:1])C(=O)[*:2]; Octanoyl(7-Me) = CC(C)CCCCCC(=O)*; Hexanoyl(4ξ-Me) = CCC(C)CCC(=O)*; dOrn = NCCC[C@@H](N)C(=O)O; Orn = NCCC[C@H](N)C(=O)O; OAll = C=CCO*
Parameter: MIC (µg/mL) against E. coli (ATCC 25922). Scope: all listed entries.
Return type: number; implicit unit µg/mL.

As a guide, the following entries are already answered.
# compound, quantity-name, reading-unit, observed-value
measured = [
    ("C=CCOC(=O)CC[C@H](NC(=O)[C@H](Cc1c[nH]c2ccccc12)NC(=O)[C@@H](CCCN)NC(=O)CNC(=O)[C@H](CCCN)NC(=O)[C@@H](CCCN)NC(=O)[C@@H](Cc1c[nH]c2ccccc12)NC(=O)[C@@H](Cc1ccc(O)cc1)NC(=O)[C@@H](CO)NC(=O)CCCCCC(C)C)C(=O)N[C@H](C(=O)N[C@@H](CC(N)=O)C(=O)NCC(=O)NCC(N)=O)[C@@H](C)CC [LL(Glu[OAll]9)-NH2 (51)] ({Octanoyl(7-Me)}-[dS][dY][dW][dOrn][Orn]G[dOrn]WE(OAll)INGG-NH2)", "MIC (µg/mL) against E. coli (ATCC 25922)", "µg/mL", 16),
    ("CCC(C)CCC(=O)N[C@H](CC(N)=O)C(=O)N[C@H](Cc1ccc(O)cc1)C(=O)N[C@H](Cc1c[nH]c2ccccc12)C(=O)N[C@H](CCCN)C(=O)N[C@@H](CCCN)C(=O)NCC(=O)N[C@H](CCCN)C(=O)N[C@@H](Cc1c[nH]c2ccccc12)C(=O)N[C@@H](CC(C)C)C(=O)N[C@H](C(=O)NCC(N)=O)[C@@H](C)CC (stereo partly drawn) [Δ12LB (Leu9)-NH2 (53)] ({Hexanoyl(4ξ-Me)}-[dN][dY][dW][dOrn][Orn]G[dOrn]WLIG-NH2)", "MIC (µg/mL) against E. coli (ATCC 25922)", "µg/mL", 8),
]

// query For CCC(C)CCC(=O)N[C@H](CC(N)=O)C(=O)N[C@H](Cc1ccc(O)cc1)C(=O)N[C@H](Cc1c[nH]c2ccccc12)C(=O)N[C@H](CCCN)C(=O)N[C@@H](CCCN)C(=O)NCC(=O)N[C@H](CCCN)C(=O)N[C@@H](Cc1c[nH]c2ccccc12)C(=O)N[C@H](C(=O)N[C@H](C(=O)NCC(N)=O)[C@@H](C)CC)[C@@H](C)N=[N+]=[N-] (stereo partly drawn) [Δ12LB (MeAbu9)-NH2 (60)] ({Hexanoyl(4ξ-Me)}-[dN][dY][dW][dOrn][Orn]G[dOrn]W[X1]IG-NH2) , write its MIC (µg/mL) against E. coli (ATCC 25922).
// result 8
